Reference source for all entries: PubChem BioAssay (NCI)

- Tested on: OVCAR-8 ovarian
- Method: NCI tumour cell line growth inhibition, 48 h
*1 amine or outer side, *2 acyl side, *3 side chain or, on linkers, in order; H or OH if unused. Where a SMILES comes first, the peptide text is derived from it. Bridges are numbered along the chain shown (N, C = ends). [ ]: non-standard residue; d: D form. The star is where a group is joined. X38 = CC[C@H](C)[C@@H](N[*:1])[C@@H](O)CC(=O)[*:2]; NMeY = CN[C@@H](Cc1ccc(O)cc1)C(=O)O; dNMeL = CN[C@H](CC(C)C)C(=O)O; Hiv = CC(C)[C@H](O)C(=O)O; Pyruvoyl = CC(=O)C(=O)*; Cbz = O=C(OCc1ccccc1)*; OBn = c1ccc(CO*)cc1
Reported endpoint: TGI

[
  {
    "Molecule": "COc1ccc(C(=O)/C=C/c2ccc(OCC(=N)N)cc2)cc1OC",
    "Value observed": "> 10 µM"
  },
  {
    "Molecule": "O=C1c2ccccc2C(=O)N1CC1(C(=O)O)NCCS1(=O)=O (stereo not drawn)",
    "Value observed": "> 100 µM"
  },
  {
    "Molecule": "O=C(CCl)c1ccc([N+](=O)[O-])o1",
    "Value observed": "18.8 µM"
  },
  {
    "Molecule": "CCCN(Cc1ccc(F)cc1)c1ccc(CO)c(Cl)c1",
    "Value observed": "25.8 µM"
  },
  {
    "Molecule": "CN1CCc2c1nc(-c1ccccc1)c1c2N(C)CC1",
    "Value observed": "> 100 µM"
  },
  {
    "Molecule": "Fc1ccc(-c2nc3n(c2-c2ccncc2)CCS3)cc1",
    "Value observed": "> 25 µM"
  },
  {
    "Molecule": "CCN(CC)CCOc1ccc(C(=C(C)c2ccc(Cl)cc2)c2ccc(OCCN(CC)CC)cc2)cc1",
    "Value observed": "1.77 µM"
  },
  {
    "Molecule": "NC1CC(=O)c2cc(Cl)sc21 (stereo not drawn)",
    "Value observed": "> 100 µM"
  },
  {
    "Molecule": "CCc1c(C)[nH]c(/C=C2\\N=C(c3ccc[nH]3)C=C2OC)c1C",
    "Value observed": "> 24.1 µM"
  },
  {
    "Molecule": "NCC1(N2CCOCC2)C2CCCC21CO (stereo not drawn)",
    "Value observed": "> 100 µM"
  },
  {
    "Molecule": "CN(C)c1ccc(-c2c(C#N)c(N)[nH]c(=S)c2C#N)cc1",
    "Value observed": "> 100 µM"
  },
  {
    "Molecule": "CCOC(=O)/C(N=Nc1ccc(-n2c(C)nc3ccccc3c2=O)cc1)=C(/C)O",
    "Value observed": "50.5 µM"
  },
  {
    "Molecule": "O=C(NO)c1ccc([N+](=O)[O-])cc1",
    "Value observed": "> 100 µM"
  },
  {
    "Molecule": "Nc1ncnc2c1ccn2C1OC2COP(=O)(O)OC2C1O (stereo not drawn)",
    "Value observed": "7.94 µM"
  },
  {
    "Molecule": "O=C(NCCCCCCNC(=O)c1cccc2ccccc12)c1cccc2ccccc12",
    "Value observed": "> 100 µM"
  },
  {
    "Molecule": "COC(=O)CNC(=O)C(C)NC(=O)C(CC(=O)OCc1ccccc1)NC(=O)OCc1ccccc1 (stereo not drawn) (Cbz-Asp(OBn)-Ala-Gly-OMe; configuration not given here)",
    "Value observed": "> 100 µM"
  },
  {
    "Molecule": "CC1(C)CCC2(C(=O)OC3OC(CO)C(O)C(O)C3O)CC[C@]3(C)C(=CCC4C5(C)CC[C@H](OC6OC(C(=O)O)C(O)C(O)C6O)C(C)(C)C5CCC43C)C2C1 (stereo partly drawn)",
    "Value observed": "18.1 µM"
  },
  {
    "Molecule": "Cc1nn2c(=O)c([N+](=O)[O-])c(/C=C/c3ccccc3)nc2s1",
    "Value observed": "5.26 µM"
  },
  {
    "Molecule": "COc1cccc(OC(=O)c2ccccc2Nc2ccnc(C(F)(F)F)c2)c1",
    "Value observed": "29.3 µM"
  },
  {
    "Molecule": "O=C1CSC2(CC(/C=C/c3ccccc3O)=NN2c2cccc(S(=O)(=O)O)c2)N1c1nc2ccccc2s1 (stereo not drawn)",
    "Value observed": "54.1 µM"
  },
  {
    "Molecule": "Cc1ccc2[nH]c(C(=O)NN3C(=O)CSC34CCCCC4C)c(-c3ccccc3)c2c1 (stereo not drawn)",
    "Value observed": "35.6 µM"
  },
  {
    "Molecule": "N#Cc1ncc(/N=C/c2ccc(N(CCCl)CCCl)cc2)s1",
    "Value observed": "> 100 µM"
  },
  {
    "Molecule": "CC[C@H](C)[C@H]1NC(=O)[C@@H](NC(=O)[C@@H](CC(C)C)N(C)C(=O)[C@@H]2CCCN2C(=O)C(C)=O)[C@@H](C)OC(=O)[C@H](Cc2ccc(OC)cc2)N(C)C(=O)[C@@H]2CCCN2C(=O)[C@H](CC(C)C)NC(=O)[C@H](C(C)C)OC(=O)C[C@@H]1O (Pyruvoyl-P[dNMeL]T[X38][Hiv]LP[NMeY](Me); ester 3-C)",
    "Value observed": "0.342 µM"
  },
  {
    "Molecule": "Fc1cc(C2=C[C@H](c3ccc(Cl)cc3)NC(=S)N2)c(Cl)cc1Cl",
    "Value observed": "> 100 µM"
  },
  {
    "Molecule": "O=C(CC1Sc2ccccc2NC1=O)Nc1cc(Cl)ccc1Cl (stereo not drawn)",
    "Value observed": "> 100 µM"
  },
  {
    "Molecule": "N#CC(C#N)=CN1CCN(C(=O)c2ccco2)C1=S",
    "Value observed": "> 100 µM"
  },
  {
    "Molecule": "O=C(O)c1c[nH]c2c(Sc3ccccc3)nccc2c1=O",
    "Value observed": "> 100 µM"
  },
  {
    "Molecule": "OCC1OC(n2ccc3c2ncn2ncnc32)C(O)C1O (stereo not drawn)",
    "Value observed": "5.68 µM"
  },
  {
    "Molecule": "O=C(NC(C(F)(F)F)(C(F)(F)F)P(=O)(c1ccccc1)c1ccccc1)C(C(F)(F)F)C(F)(F)F",
    "Value observed": "72.8 µM"
  },
  {
    "Molecule": "COc1cc(OCc2ccc3nc(-c4ccccc4)c(N)nc3c2)cc(OC)c1OC",
    "Value observed": "72.3 µM"
  },
  {
    "Molecule": "O=C(O)C(=C\\c1ccc2c(c1)OCO2)/C(=C/c1ccc2c(c1)OCO2)C(=O)O",
    "Value observed": "> 100 µM"
  },
  {
    "Molecule": "C[C@H]1[C@H](C)N(Cc2ccccc2)P(=O)(C(O)/C=C/c2ccccc2)N1Cc1ccccc1 (stereo partly drawn)",
    "Value observed": "> 25 µM"
  },
  {
    "Molecule": "COc1ccc(Cn2nc(-c3cc(OC)c(OC)c(OC)c3)c3c2CCc2cnoc2-3)cc1OC",
    "Value observed": "> 100 µM"
  },
  {
    "Molecule": "C[C@]12CC[C@H]3[C@@H](CCC4=CC(=O)CC[C@@H]43)[C@@H]1CC[C@@H]2OC(=O)N(CCCl)N=O",
    "Value observed": "51.9 µM"
  },
  {
    "Molecule": "CC1CC2OC(=O)C3CC(O)CC(=C23)[C@@]12C[C@@H](c1ccoc1)OC2=O (stereo partly drawn)",
    "Value observed": "> 100 µM"
  },
  {
    "Molecule": "c1ccc(Nc2nnc(CSc3nc(-c4ccccc4)c(-c4ccccc4)[nH]3)s2)cc1",
    "Value observed": "53.8 µM"
  },
  {
    "Molecule": "Cc1c(C#N)c2nnn(C)c(=O)n2c1-c1ccccc1",
    "Value observed": "> 100 µM"
  },
  {
    "Molecule": "c1ccc2[nH]c(-c3ccc(N4CCN(c5ccc(-c6nc7ccccc7[nH]6)cc5)CC4)cc3)nc2c1",
    "Value observed": "> 100 µM"
  }
]

###

Catalogue of TGI values
- Tested on: HCT-116 colon
- Method: NCI tumour cell line growth inhibition, 48 h
Where a SMILES comes first, the peptide text is derived from it. The star is where a group is joined. Cbz = O=C(OCc1ccccc1)*; OBn = c1ccc(CO*)cc1
Reported endpoint: TGI

[
  {
    "Compound": "N=C(N)c1nn(C2OC(CO)C(O)C2O)c2nc[nH]c(=O)c12 (centres undefined)",
    "Value observed": "1.29 µM"
  },
  {
    "Compound": "CC12CCC=CC1CCC1C2CCC2(C)C(c3ccc(=O)oc3)CCC12O (centres undefined)",
    "Value observed": "0.389 µM"
  },
  {
    "Compound": "O=S(=O)([O-])[O-].[Fe+2].c1ccc(/C(=N\\Nc2ccccn2)c2ccccn2)cc1",
    "Value observed": "4.56 µM"
  },
  {
    "Compound": "NC(=O)OCC(COc1ccc(Cl)cc1)OC(=O)c1ccccc1Cl (centres undefined)",
    "Value observed": "30.7 µM"
  },
  {
    "Compound": "COC(=O)CNC(=O)C(C)NC(=O)C(CC(=O)OCc1ccccc1)NC(=O)OCc1ccccc1 (stereo not drawn) (Cbz-Asp(OBn)-Ala-Gly-OMe; configuration not given here)",
    "Value observed": "> 100 µM"
  },
  {
    "Compound": "CCOC(C[C@H](O)[C@H]1COC(=S)S1)OCC",
    "Value observed": "> 100 µM"
  },
  {
    "Compound": "COc1ccc2c(c1)CC[C@@H]1[C@@H]2CC[C@]2(C)C(=O)C3(CCCCC3)C[C@@H]12",
    "Value observed": "> 100 µM"
  },
  {
    "Compound": "CCN=C1C=CC(=C(c2ccc(N(C)C)cc2)c2ccc(N(C)C)cc2)c2ccccc21",
    "Value observed": "0.174 µM"
  },
  {
    "Compound": "NCC1(N2CCOCC2)C2CCCC21CO (centres undefined)",
    "Value observed": "> 100 µM"
  }
]
